Entries annotated with measured Grenzflächenspannungen gegen Wasser
test-name: Interfacial tension of lipids against water (measure of polarity)
Format: physicochemical
study-conditions: lipids below 30 mN/m are regarded as polar

**Q:** Quickly give me recorded Grenzflächenspannungen gegen Wasser for CCCCCCCCOCCCCCCCC [Cetiol® OE, Dicaprylyl Ether]
**A:** 22,1 mN/m

**Q:** Quickly give me recorded Grenzflächenspannungen gegen Wasser for CCCCCCCC(=O)OCC(COC(=O)CCCCCCC)OC(=O)CCCCCCC [Trivent® OCG, Tricaprylin]
**A:** 20,2 mN/m

**Q:** Quickly give me recorded Grenzflächenspannungen gegen Wasser for CCCCCCCCCCCCCCCCCCOC(=O)CCCCCC [Tegosoft® SH, Stearyl Heptanoate]
**A:** 28,7 mN/m

**Q:** Quickly give me recorded Grenzflächenspannungen gegen Wasser for CCCCCCCCOC(=O)CCCCCCCCCCCCCCC(C)C [Prisorine® 2036, Octyl Isostearate]
**A:** 29,7 mN/m

**Q:** Quickly give me recorded Grenzflächenspannungen gegen Wasser for CCCCCCCCCCCCCCCCCC(=O)OC(C)C [Isopropylstearat, Isopropyl Stearate]
**A:** 21,9 mN/m

This collection of values is drawn from patent EP1072247A2.
